Source listed as ChEMBL document CHEMBL4257453.

molecular target: CYP1A1 (Homo sapiens); assay: Inhibition of human recombinant CYP1A1 expressed in HEK293 cells at 10 uM using 7-ethoxyresorufin substrate preincubated for 30 mins followed by substrate addition and measured after 60 mins by fluorescence assay relative to control; type: cell-based; settings: HEK293 cells expressing human recombinant CYP1A1, probe 7-ethoxyresorufin
Sequence (P04798 whole entry): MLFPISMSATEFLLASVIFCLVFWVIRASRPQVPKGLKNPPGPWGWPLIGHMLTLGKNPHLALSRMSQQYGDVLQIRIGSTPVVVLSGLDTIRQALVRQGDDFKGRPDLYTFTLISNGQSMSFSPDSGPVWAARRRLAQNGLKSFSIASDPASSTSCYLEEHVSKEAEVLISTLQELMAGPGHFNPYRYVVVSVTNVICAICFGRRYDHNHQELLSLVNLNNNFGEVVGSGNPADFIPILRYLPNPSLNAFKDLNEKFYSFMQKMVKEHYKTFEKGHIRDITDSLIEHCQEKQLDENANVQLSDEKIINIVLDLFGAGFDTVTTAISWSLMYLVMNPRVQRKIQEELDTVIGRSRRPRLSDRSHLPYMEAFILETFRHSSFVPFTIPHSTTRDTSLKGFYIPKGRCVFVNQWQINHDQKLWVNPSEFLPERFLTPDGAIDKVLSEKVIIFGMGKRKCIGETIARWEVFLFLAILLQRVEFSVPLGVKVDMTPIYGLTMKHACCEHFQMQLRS
Reported inhibition at 1 h, 10 µM values for the following compounds.
Result Type: inhibition at 1 h, 10 µM (%)

[
  {
    "Compound": "COc1ccc2c(c1OC)C(OC)N(C)c1c-2ccc2cc3c(cc12)OCO3 (stereo not given)",
    "Measured On": "CYP1A1 (Homo sapiens)",
    "Result Type": "inhibition at 1 h, 10 µM",
    "Result Unit": "%",
    "Reported Result": 80
  },
  {
    "Compound": "COc1c2ccoc2cc2oc(=O)ccc12",
    "Measured On": "CYP1A1 (Homo sapiens)",
    "Result Type": "inhibition at 1 h, 10 µM",
    "Result Unit": "%",
    "Reported Result": 91
  },
  {
    "Compound": "COc1c2ccoc2c(OC)c2oc(=O)ccc12",
    "Measured On": "CYP1A1 (Homo sapiens)",
    "Result Type": "inhibition at 1 h, 10 µM",
    "Result Unit": "%",
    "Reported Result": 91
  },
  {
    "Compound": "COc1c2ccoc2c(OCC=C(C)C)c2oc(=O)ccc12",
    "Measured On": "CYP1A1 (Homo sapiens)",
    "Result Type": "inhibition at 1 h, 10 µM",
    "Result Unit": "%",
    "Reported Result": 90
  },
  {
    "Compound": "O=C1C=CC(=O)c2c(O)ccc(O)c21",
    "Measured On": "CYP1A1 (Homo sapiens)",
    "Result Type": "inhibition at 1 h, 10 µM",
    "Result Unit": "%",
    "Reported Result": 78
  }
]
